- target_or_system: T1, PcrV (aa136-257).6xhis (Pseudomonas aeruginosa)
- T1 chain: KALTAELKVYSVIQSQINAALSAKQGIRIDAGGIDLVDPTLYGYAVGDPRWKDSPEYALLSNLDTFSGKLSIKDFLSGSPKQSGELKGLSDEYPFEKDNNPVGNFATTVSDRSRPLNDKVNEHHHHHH
- assay_text: SPR (Biacore T200), mAb captured via anti-human Fc, PcrV injected, 37 C
Parameter: koff. Scope: all listed entries.

{"columns": ["binder", "unit_of_measurement", "koff"],
 "data": [
  ["REGN3514 (antibody, V domains shown, also called Control I; Control I-REGN3514) VH: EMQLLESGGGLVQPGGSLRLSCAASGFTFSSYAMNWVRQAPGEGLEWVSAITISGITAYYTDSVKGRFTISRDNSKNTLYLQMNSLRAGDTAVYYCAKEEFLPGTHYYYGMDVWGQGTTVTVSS VL: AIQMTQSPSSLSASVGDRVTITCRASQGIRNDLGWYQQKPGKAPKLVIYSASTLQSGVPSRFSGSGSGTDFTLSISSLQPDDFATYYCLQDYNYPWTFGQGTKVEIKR", "s⁻¹", 0.000596],
  ["H1H29339P (antibody, V domains shown) VH: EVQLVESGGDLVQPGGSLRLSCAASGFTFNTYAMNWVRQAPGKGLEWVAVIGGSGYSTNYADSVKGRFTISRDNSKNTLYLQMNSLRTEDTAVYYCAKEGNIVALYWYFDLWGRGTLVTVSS VL: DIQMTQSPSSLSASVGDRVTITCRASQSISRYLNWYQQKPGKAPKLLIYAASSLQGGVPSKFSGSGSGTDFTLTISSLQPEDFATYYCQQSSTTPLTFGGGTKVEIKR", "s⁻¹", "8.15e-05"],
  ["H1H29329P (antibody, V domains shown) VH: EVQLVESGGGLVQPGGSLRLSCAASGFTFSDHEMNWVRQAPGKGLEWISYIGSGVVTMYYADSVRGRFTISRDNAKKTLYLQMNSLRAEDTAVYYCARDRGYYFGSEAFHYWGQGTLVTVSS VL: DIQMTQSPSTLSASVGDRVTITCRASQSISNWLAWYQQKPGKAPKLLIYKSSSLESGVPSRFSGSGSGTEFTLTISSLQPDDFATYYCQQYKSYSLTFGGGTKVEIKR", "s⁻¹", 0.011]
]}
